target: recombinant factor H binding protein (FHbp) ID 1 (Neisseria meningitidis serogroup B …, UniProt Q9JXV4); assay: SPR
Sequence (Q9JXV4 20-274): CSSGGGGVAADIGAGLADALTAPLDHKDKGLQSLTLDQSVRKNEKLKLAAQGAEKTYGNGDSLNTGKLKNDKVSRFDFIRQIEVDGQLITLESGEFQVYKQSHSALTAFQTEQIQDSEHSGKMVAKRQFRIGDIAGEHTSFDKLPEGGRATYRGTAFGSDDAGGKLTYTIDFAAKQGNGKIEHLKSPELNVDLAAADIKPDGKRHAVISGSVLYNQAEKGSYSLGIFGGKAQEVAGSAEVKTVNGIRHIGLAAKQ
readout-kind: koff (s⁻¹)
Numbers only, in s⁻¹.

Sample answers from the record:
>  <binder>
human anti-FHbp Fab 2A (Fab, V domains shown) VH: QVQLQQSGSGLVKPSQTLSLTCTVSGGSINIGDRYWSWLRQSPGKGLEWIGYIDYSGDTYYNSSLKSRAAISIDTSNKQFSLKLSSVTAADTAVYYCARGSSDFSSGYFFDYWGQGTLVTVSS VL: ETTLTQSPATLSVSPGERAILSCRDSQSVSSNLAWYQQKPGQAPRLLIFGASTRATGIPARFSGSGSGTEFTLTISSLQSEDFAVYYCQQYNNWLSFGQGTKLEIK

>  <koff, s⁻¹>
0.061

$$$$
>  <binder>
control chimeric human-mouse anti-FHbp Fab 502 (Fab, V domains shown) VH: EVQLQESGPGLAKPSQTLSLTCSVTGYSITSDFWNWIRKFPGNKLEYMGYISYSGSTDYNPSLKSRISITRDTSKNQYYLQLNSVTAEDTATYYCARYFGSSYAMDHWGQGTSVTVSS VL: DIQMTQSPASLSASVGETVTITCRASGNIHNYLAWYQQKQGKSPQLLVYTAKTLAEGVPSRFSGSGSGTQFSLKINSLQPEDFGSYYCQHFWSTPWTFGGGTKLEIK

>  <koff, s⁻¹>
0.0053

$$$$

# next binder below
query: Give the measured koff of human anti-FHbp Fab 3C (Fab, V domains shown) VH: QVQLQESGPGLVKPSETLSLTCTVSGYSITRGYYWGWIRQPPGKGLEWIGGIYHSGTTYQNPSLRSRVTFSVDTSKNQFSLKLRSVTAADTAVYYCARDNYSSNLDYWGQGTMVTVSS VL: EIVLTQSPGTLSLSPGERATLSCRASQSVSSSYLAWYQQKAGQAPRLLIYGASSRATGIPERFSGSGSGTDFTLTISRLEPEDFAIYYCQQYGSSRFIFGPGTKVDIK .
result: 0.0032
